test: Selectivity index, ratio of IC50 for cytotoxicity against African green monkey Vero cells to IC50 for leishmanicidal activity against Leishmania major […] amastigote infected in human THP-1 cells
Assay type: toxicity, cell-based
conditions_used: read-out: Ratio IC50
# maps each entry to its selectivity ratio
attribute_measured: selectivity ratio

• CCCCc1cn(CCCCCN2C(=O)CN(/N=C/c3ccc([N+](=O)[O-])o3)C2=O)nn1 = 6
• O=C1CN(/N=C/c2ccc([N+](=O)[O-])o2)C(=O)N1CCCn1cc(CSc2ccccc2)nn1 = 1
• CCCCCc1cn(CCCCCN2C(=O)CN(/N=C/c3ccc([N+](=O)[O-])o3)C2=O)nn1 = 11
• O=Cc1ccc([N+](=O)[O-])o1 = 4

meta.source: ChEMBL document CHEMBL5352474
